target: human GLP-1R receptor (Homo sapiens, UniProt P43220); test: GLP-1R low expression cell assay (cAMP TR-FRET, CHO-K1_hGLP-1Rlow_clone10 cells); conditions: cAMP TR-FRET, 30 min at 25° C.
Sequence (P43220 24-463): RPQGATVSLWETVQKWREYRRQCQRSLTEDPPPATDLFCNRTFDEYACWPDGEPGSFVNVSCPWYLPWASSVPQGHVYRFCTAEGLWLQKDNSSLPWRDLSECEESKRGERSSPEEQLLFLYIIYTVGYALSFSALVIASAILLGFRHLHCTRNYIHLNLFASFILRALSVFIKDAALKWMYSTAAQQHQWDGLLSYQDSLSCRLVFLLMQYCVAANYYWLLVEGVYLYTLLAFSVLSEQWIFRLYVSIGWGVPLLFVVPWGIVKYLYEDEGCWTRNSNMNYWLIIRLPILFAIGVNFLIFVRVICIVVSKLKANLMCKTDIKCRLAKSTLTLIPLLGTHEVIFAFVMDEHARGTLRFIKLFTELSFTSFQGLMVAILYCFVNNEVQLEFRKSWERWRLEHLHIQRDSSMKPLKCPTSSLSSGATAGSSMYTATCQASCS
pEC50: −log10 of the molar value.
parameter.measured: pEC50

Here is how some compounds turned out for pEC50.
> print(dat)
                                   compound  observed.value
1  COc1cc(C(=O)O)cc2c1nc(CN1CCN(c3cccc(OCc4ccc(Cl)cc4F)n3)CC1)n2C    7.00 to 8.00
2  Cn1c(CN2CCC(c3cc(OCc4ccc(C#N)cc4F)ccc3F)CC2)nc2c(OC(F)F)cc(C(=O)O)cc21          < 6.00

// lookup pEC50 | system=human GLP-1R receptor (Homo sapiens, UniProt P43220) | key= `COc1cc(C(F)(F)F)ccc1COc1cccc(C2CCN(Cc3nc4c(OC)cc(C(=O)O)cc4n3C)CC2)n1`
> 8.00

Please do the same for `CCOc1cc(-c2nnn[nH]2)cc2c1nc(CN1CCC(c3cccc(OCc4ccc(C#N)cc4F)n3)CC1)n2C` as well.
> 8.00

Cool, now `CCOc1cc(C(=O)O)cc2c1nc(CN1CCC(c3cccc4c3O[C@@H](c3ccc(C#N)cc3F)CO4)CC1)n2C`
< 6.00

Please answer likewise for C[C@@H](Oc1ccccc1C1CCN(Cc2nc3c(OC(F)F)cc(C(=O)O)cc3n2C)CC1)c1ccc(C#N)cc1F (single isomer, unassigned)
< 6.00

====

experiment: Rat pharmacokinetics, oral dosing; format: in vivo, Sprague-Dawley rats; settings: male, Sprague-Dawley, oral dosing at 3 mg/kg, plasma, read-out: Rat T1/2
parameter.measured: half-life

Past entries and their recorded results:
> print(dat)
                                 smiles.str  observed.value
1  Cn1c(CN2CCC(c3cccc(OCc4ccc(C#N)cc4F)n3)CC2)nc2c(OCF)cc(C(=O)O)cc21    1.5 to 2.5 h
2  Cn1c(CN2CCC(c3cccc4c3O[C@@](C)(c3ccc(Cl)cn3)O4)CC2)nc2c(OC(F)F)cc(C(=O)O)cc21         ≥ 2.5 h
3  Cn1c(CN2CCC(c3cccc(OCc4ccc(C#N)cc4F)c3)CC2)nc2c(OC(F)F)cc(C(=O)O)cc21    1.5 to 2.5 h

Reported half-life for `Cn1c(CN2CCC(c3cccc(OCc4ccc(Cl)c5ccoc45)n3)CC2)nc2c(OC(F)F)cc(C(=O)O)cc21` : what is it?
1.5 to 2.5 h

Note, next up: `COCCOc1cc(C(=O)O)cc2c1nc(CN1CCC(c3cccc4c3O[C@@](C)(c3ccc(Cl)cn3)O4)CC1)n2C`
≥ 2.5 h

Same lookup for `COc1cc(C(=O)O)cc2c1nc(CN1CCC(c3cccc(OCc4ccc(Cl)cc4F)n3)CC1)n2C` , please.
1.5 to 2.5 h

Let us now turn to `[2H]C([2H])(C)Oc1cc(C(=O)O)cc2c1nc(CN1CCC(c3cccc(OCc4ccc(C#N)cc4F)n3)CC1)n2C`
1.5 to 2.5 h

Would you kindly repeat that for `Cn1c(CN2CCC(c3ccc(F)c(OCc4ccc(Cl)cc4F)c3)CC2)nc2c(OC(F)F)cc(C(=O)O)cc21` ?
1.5 to 2.5 h

Could you do the same for `Cn1c(CN2CCC(c3cccc4c3O[C@@H](c3ccc(C#N)cc3F)CO4)CC2)nc2c(OCCF)cc(C(=O)O)cc21` , please?
≥ 2.5 h

Thanks! And `COc1cc(C(=O)O)cc2c1nc(CN1CCC(c3cccc(OCc4ccc(C(F)F)cc4F)n3)CC1)n2C` ?
1.5 to 2.5 h

Same thing, different compound: `CC(C)Oc1cc(C(=O)O)cc2c1nc(CN1CCC(c3cccc(OCc4ccc(C#N)cc4F)n3)CC1)n2Cc1cncs1`
< 1.5 h

Field entry: `COc1cc(C(=O)O)cc2c1nc(CN1CCC(c3cccc4c3O[C@@](C)(c3ccc(Cl)cn3)O4)CC1)n2C`
1.5 to 2.5 h

Record: `C[C@]1(c2ccc(Cl)cn2)Oc2cccc(C3CCN(Cc4nc5c(OC6CC6)cc(C(=O)O)cc5n4Cc4cncs4)CC3)c2O1`
1.5 to 2.5 h

How about this compound: `[2H]C([2H])([2H])Oc1cc(C(=O)O)cc2c1nc(CN1CCC(c3cccc(OCc4ccc(Cl)cc4F)n3)CC1)n2C`
1.5 to 2.5 h

One more compound: `Cn1c(CN2CCC(c3cccc(OCc4ccc(C#N)cc4F)n3)CC2)nc2c(OC(F)F)cc(C(=O)O)cc21`
< 1.5 h

Same for `COc1cc(C(=O)O)cc2c1nc(CN1CCC(c3cccc(OCc4ccc(Cl)c5c4OCC5)n3)CC1)n2C`
1.5 to 2.5 h

Also `Cn1c(CN2CCC(c3ccc(F)c(OCc4ccc(C#N)cc4F)n3)CC2)nc2c(OC(F)F)cc(C(=O)O)cc21` , if possible.
1.5 to 2.5 h

// next record `COc1cc(C(=O)O)cc2c1nc(N(C)[C@H]1CC[C@H](c3cccc4c3O[C@@](C)(c3ccc(Cl)cn3)O4)CC1)n2C[C@@H]1CCO1`
≥ 2.5 h

====

assay: Rat pharmacokinetics, oral dosing; assay type: in vivo, Sprague-Dawley rats; settings: male, Sprague-Dawley, plasma, oral dosing at 3 mg/kg
parameter.measured: bioavailability

Consider the reported bioavailability for these compounds:
> print(dat)
                                   compound  observed.value
1  COc1cc(C(F)(F)F)ccc1COc1cccc(C2CCN(Cc3nc4c(OC)cc(C(=O)O)cc4n3C)CC2)n1 [Compound 306]       50 to 85%
2  Cn1c(CN2CCC(c3cccc4c3OC[C@@H](c3ccc(C#N)cc3F)O4)CC2)nc2c(OC(F)F)cc(C(=O)O)cc21 [Compound 300]           > 85%
3  C[C@]1(c2ccc(Cl)cn2)Oc2cccc(C3CCN(Cc4nc5c(OC6COC6)cc(C(=O)O)cc5n4C[C@@H]4CCO4)CC3)c2O1 [Compound 72]           < 25%
4  [2H]C([2H])(C)Oc1cc(C(=O)O)cc2c1nc(CN1CCC(c3cccc(OCc4ccc(C#N)cc4F)n3)CC1)n2C [Compound 295]       25 to 50%

Given the compound C[C@]1(c2ccc(Cl)cn2)Oc2cccc(C3CCN(Cc4nc5c(OCC6COC6)cc(C(=O)O)cc5n4C[C@@H]4CCO4)CC3)c2O1 [Compound 77] , what is its reported bioavailability?
< 25%

Repeat with Cn1c(CN2CCC(c3cccc(OCc4ccc(C#N)cc4F)n3)CC2)nc2c(OCF)cc(C(=O)O)cc21 [Compound 113]
50 to 85%

====

biological target: human GLP-1R receptor (Homo sapiens, UniProt P43220); construct: expressed in transfected cells; experiment: GLP-1R low expression cell assay (cAMP TR-FRET, CHO-K1_hGLP-1Rlow_clone10 cells); assay type: cell-based; details: maximum activation relative to control GLP-1 peptide agonist
parameter.measured: Emax

> print(dat)
                                 smiles.str                             tested.system  observed.value
1  COc1cc(C(=O)O)c(F)c2c1nc(CN1CCC(c3cccc(OCc4ccc(C#N)cc4F)n3)CC1)n2C  human GLP-1R receptor (Homo sapiens, UniProt P43220)           > 85%
2  C[C@]1(c2ccc(Cl)cn2)Oc2cccc(C3CCN(Cc4nc5c(OCC6COC6)cc(C(=O)O)cc5n4C[C@@H]4CCO4)CC3)c2O1  human GLP-1R receptor (Homo sapiens, UniProt P43220)           > 85%

Here is the next item to consider.
Fill in: Emax of `Cn1c(CN2CCC(c3cccc(OCc4ccc(Cl)cc4F)n3)CC2)nc2c(OC(F)F)cc(-c3nnc(C(F)(F)F)[nH]3)cc21` is ___
25 to 50%

====

Entries and their measured pEC50 follow.
target: human GLP-1R receptor (Homo sapiens); construct: expressed in transfected cells; test: GLP-1R low expression cell assay (cAMP TR-FRET, CHO-K1_hGLP-1Rlow_clone10 cells); format: cell-based; conditions: cAMP TR-FRET, 30 min at 25° C.
pEC50: −log10 of the molar value.

Before answering, review these 3 worked examples.
> print(dat)
                                   molecule  parameter.measured  observed.value
1  COc1cc(C(=O)O)nc2c1nc(CN1CCC(c3cccc(OCc4ccc(Cl)cc4F)n3)CC1)n2C               pEC50    7.00 to 8.00
2  COc1cc(C(=O)O)cc2c1nc(CN1CCC(c3cccc(OCc4ccc(C#N)cc4F)n3)CC1)n2C(F)F               pEC50    6.00 to 7.00
3  COc1cc(C(=O)O)cc2c1nc(CN1CCC(c3cccc4c3O[C@@](C)(c3ccc(Cl)cn3)O4)CC1)n2C               pEC50          > 8.00

Give pEC50 (human GLP-1R receptor (Homo sapiens)) of the following molecule: `Cn1c(CN2CCC(c3cccc4c3O[C@@H](c3ccc(Cl)cc3F)CO4)CC2)nc2c(OCCF)cc(C(=O)O)cc21`
> 8.00

And then `Cn1c(CN2CCC(c3cccc(OCc4ccc(Cl)cc4F)n3)CC2)nc2c(OCCF)cc(C(=O)O)cc21` , what is it?
> 8.00
